Cited source: PubChem BioAssay (NCI)

run.description: NCI Yeast Anticancer Drug Screen. Data for the rad50 strain (AID 155);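 further: 0% = growth of vehicle-only cultures of the same strain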
measurement.conditions: S. cerevisiae rad50 strain growth inhibition; at 50.0 µM; stronger effect = higher value
This is part of a sample that, as a whole, favours compounds with a hit. Of some 79,000 tested, about 15% had one in any assay. Active and inactive are the calls of the source. No stated cut-off is given here; in the data, active means growth inhibition above about 70%; inactive means the rest.
observation.type: growth inhibition

Exam item: Given the molecule CCOC(=O)c1c(NN)n[nH]c1C , what is its reported growth inhibition?
Marked response: 8.95% (inactive)

Further cases:
Exam item: Param item = NC(=O)NC(=O)OCCOC(=O)NC(N)=O ; retrieve measured growth inhibition.
Marked response: -28.4% (inactive)

Exam item: Which growth inhibition value belongs to COc1ccc(NC(C)=O)c([N+](=O)[O-])c1 ?
Marked response: 23.3% (inactive)

Exam item: # growth inhibition lookup, item COc1ccc2c(NCCCCCCNc3c4ccccc4nc4cc(OC)ccc34)c3ccccc3nc2c1
Marked response: 89.9% (active)

----------
run.description: NCI Yeast Anticancer Drug Screen. Data for the bub3 strain (AID 167)
measurement.conditions: S. cerevisiae bub3 mutant strain, at 50.0 µM, stronger effect = higher value
This is part of a sample that, as a whole, favours compounds with a hit. Of some 79,000 tested, about 15% had one in any assay. Active and inactive are the calls of the source. Rule as the data show it: active = growth inhibition above about 70%; inactive = the rest.
As shown below, each of these compounds has a reported growth inhibition value.

Study these solved cases before continuing.
Exam item: I am curious: what growth inhibition value has been reported for COc1cc(-c2cc(OC)c(N)cc2Br)c(Br)cc1N ?
Marked response: 54.4% (inactive)

Exam item: What measured growth inhibition goes with O=C(O)C(c1ccc(-c2ccccc2)cc1)C1CCCCC1 (stereo unspecified) ?
Marked response: 45% (inactive)

Exam item: # growth inhibition lookup, item CC1=NNC(=O)C1(C)C
Marked response: 3.3% (inactive)

Exam item: Recorded growth inhibition for CC(C)(CO[C@H]1C[C@H]2CC[C@@]1(C)C2(C)C)[N+](=O)[O-] , please?
Marked response: 12.9% (inactive)

Exam item: For CCCCCCO[Si](OCCCCCC)(OCCCCCC)OCCCCCC , what is its reported growth inhibition?
Marked response: -17.8% (inactive)

Exam item: I'd like to know its growth inhibition. The compound in question is COC(=O)CC1C(OC)OC23CCC1C2(C)CCC1C3CCC2CC(OC3CCCCO3)CCC21C (stereo unspecified)
Marked response: 3.2% (inactive)

Exam item: # growth inhibition lookup, item CC(=O)Oc1ccc(OC(C)=O)c2cc3c(cc12)C(=O)C(C)=C(C)C3=O
Marked response: 3.35% (inactive)

Exam item: What does the record list as growth inhibition for COc1ccc(-c2nc(SCC(=O)O)n(-c3ccccn3)c2-c2ccc(OC)cc2)cc1 ?
Marked response: 42.9% (inactive)

Exam item: Item COc1cc(/C=C/C(=O)NCCc2c[nH]c3ccc(O)cc23)ccc1O has what recorded growth inhibition?
Marked response: 3.15% (inactive)

Exam item: Quick one: growth inhibition of CCOC(=O)c1c(NN)n[nH]c1C ?
Marked response: 7.1% (inactive)

More entries:
Exam item: Find the recorded growth inhibition belonging to NCCCCCCCCCCC(=O)O and report it.
Marked response: -5.9% (inactive)

Exam item: Look up growth inhibition for this compound: COc1cccc2cc(-c3c[nH]c4ccccc34)c(=O)oc12
Marked response: 1.65% (inactive)

Exam item: # get_value(readout='growth inhibition', item= O=C1Cc2c([nH]c3ccccc23)-c2cc(Br)ccc2N1 )
Marked response: 31.6% (inactive)

Exam item: Given the entry CC(C)c1ccccc1[S+]1OC(C)(C)c2ccccc21 (stereo unspecified) , report its measured growth inhibition.
Marked response: -1.5% (inactive)

Exam item: Any idea what its growth inhibition is? The compound is Cn1c(=O)c(Br)c(C=O)n(CCO[N+](=O)[O-])c1=O
Marked response: 38.6% (inactive)

----------
run.description: NCI Yeast Anticancer Drug Screen. Data for the rad50 strain (AID 155);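 further: 0% = growth of vehicle-only cultures of the same strain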
measurement.conditions: S. cerevisiae rad50 strain growth inhibition; at 50.0 µM; stronger effect = higher value
Method: Growth inhibition of yeast strains with defined genetic alterations is measured as a screen for potential anti-cancer activity. Selected strains with alterations in DNA damage repair or cell cycle control were exposed to compounds and growth inhibition was measured relative to vehicle treated controls. The strain used in this assay is rad50
The panel holds about 79,000 compounds, 15% with a hit somewhere; the sample as a whole holds those more often.
Each entry gets Condition not met if its growth inhibition stays under 10%, and Condition met if its growth inhibition is 10% or above.

Exam item: Form field: growth inhibition at least 10%? Entry: NC1=Nc2ccccc2Sc2nnc(-c3ccc(Cl)cc3)n21
Marked response: Condition not met

Exam item: Record CCOC(=O)CNC1C(NC(C)=O)C(OC)OC2COC(c3ccccc3)OC21 (configuration not stated) ; criterion: growth inhibition no lower than 10%. Met?
Marked response: Condition not met

Exam item: Could you please find out whether CCOc1ccccc1NC(=O)c1c(Br)c(Br)c(Br)c(Br)c1C(=O)O has growth inhibition that meets 10% or exceeds it?
Marked response: Condition not met

Exam item: Hi, just wondering whether COC(=O)C(CCS(=O)(=O)CC(=O)C(=O)Nc1cccc(C(C)=O)c1)C(=O)OC shows growth inhibition of 10% or higher.
Marked response: Condition not met

Exam item: Has O=C1C(=S)Nc2c(F)cccc21 a recorded growth inhibition greater than or equal to 10%?
Marked response: Condition met

Exam item: Does growth inhibition meet or surpass 10% for COc1ccc(CCNC(=O)Cc2cc(OCc3ccccc3)c(OC)cc2[N+](=O)[O-])cc1OC ?
Marked response: Condition met

---
Exam item: Has CC(C)C1=CC2=CCC3C(C)(COC(=O)CSC(C)(C)C)CCCC3(C)C2CC1 (configuration not stated) a recorded growth inhibition greater than or equal to 10%?
Marked response: Condition met

Exam item: Determine whether this compound has growth inhibition no lower than 10%: S=C(SNC1CCCCC1)SNC1CCCCC1
Marked response: Condition not met

Exam item: Test whether the compound CCN(CC)CCCC#N records growth inhibition of 10% or higher.
Marked response: Condition not met

----------
growth inhibition values for the compounds below.
run.description: NCI Yeast Anticancer Drug Screen. Data for the mlh1 rad18 strain (AID 175)
measurement.conditions: S. cerevisiae mlh1 rad18 strain growth inhibition; at 50.0 µM; stronger effect = higher value
About 79,000 compounds went through this panel and 15% of them were active in at least one assay; those are over-represented in the sample as a whole.
Your answer should be a plain number; it is taken to be in %.

Please review the entries below; each comes with its answer.
Exam item: Returns the measured growth inhibition for the input compound. Input: CC(=O)NC1CCCC(CC2CCCCC2)C1 (stereo not given)
Marked response: -14.9

Exam item: Which growth inhibition is reported for this compound? CSc1nccc(=O)n1C
Marked response: -2.15

Exam item: # growth inhibition lookup, item CCCCCSC
Marked response: 28.6

Next:
Exam item: Look up growth inhibition for this compound: Cc1cc(N=Nc2ccc(S(=O)(=O)O)c3ccccc23)ccc1O
Marked response: -5.6

Exam item: # input compound: CC1=Nc2ccccc2NC(C)(C)C1 ; wanted: its growth inhibition
Marked response: 20.4

----------
run.description: NCI Yeast Anticancer Drug Screen. Data for the cln2 rad14 strain (AID 165);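 further: 0% = growth equal to vehicle treated cultures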
measurement.conditions: S. cerevisiae cln2 rad14 strain, at 50.0 µM, stronger effect = higher value
Compounds without any hit were thinned out: in the full panel of roughly 79,000, 15% have a hit.
Items are presented alongside their recorded growth inhibition.
Numeric only. Scale: %

Solved entries:
Exam item: Please report the recorded growth inhibition for O=C(NO)Oc1cccc2ccccc12 .
Marked response: 6.75

Exam item: Query: growth inhibition; subject: NC(CCC(=O)O)C(=O)NC(Cc1c[nH]c2ccccc12)C(=O)O (configuration not stated)
Marked response: -23.1

Exam item: Fill blank: measured growth inhibition of the compound CN1Cc2ccccc2-c2ccccc2C1 is ____.
Marked response: -32.8

Exam item: Reported growth inhibition, compound C(=C\c1ccc(/C=C/c2ccccc2)nn1)/c1ccccc1 : ____
Marked response: -21.4

Exam item: What value of measured growth inhibition is listed for Nc1[nH]n(-c2ccccc2)c(=O)c1/C=N/C(=S)N=Nc1c(O)[nH]c2ccccc12 ?
Marked response: 1.5

Exam item: Quick one: growth inhibition of O=C(NNC(=S)Nc1ccccc1)C12CC3CC(CC(C3)C1)C2 ?
Marked response: 14.7

Exam item: Return reported growth inhibition; argument: CCCCC(=O)CCCC
Marked response: -3.3

Exam item: So what's the measured growth inhibition for this one? O=CN(C1CCCCC1)C1CCCCC1
Marked response: 8.8

Exam item: If you can, please state the reported growth inhibition value of Clc1ccccc1C=NC1CCCCC1 .
Marked response: -1.15

Exam item: Sample Cc1ccccc1C(=O)OCC(=O)c1ccc(-c2ccccc2)cc1 — what was its growth inhibition?
Marked response: -37.5

Next:
Exam item: Any idea what its growth inhibition is? The compound is COc1c(-c2cccs2)oc2c(CC(=O)O)cccc2c1=O
Marked response: 5.9

Exam item: Which growth inhibition value belongs to CC(C)(C)OC(=O)N(CCCCN(CCCNC(=O)C(F)(F)F)C(=O)OC(C)(C)C)CCCNC(=O)C(F)(F)F ?
Marked response: 3.15

Exam item: // returns reported growth inhibition for input COc1cc2c(cc1OC)C1(c3ccccc3)ON=C(c3ccccc3)N1CS2 (configuration not stated)
Marked response: -32.4

Exam item: # get_value(readout='growth inhibition', item= COC(=N)CC(=O)C(C)(C)C )
Marked response: -9.65

Exam item: Param item = COC(=O)c1ccc(C(=O)O)cc1 ; retrieve measured growth inhibition.
Marked response: -6.55

Exam item: Which value of growth inhibition has been reported for CC1CC(OC(=O)c2ccccc2)CCC1=O (configuration not stated) in the records?
Marked response: 14.5

Exam item: What does the record list as growth inhibition for Cc1cccc2c(N)c3cccc(C(=O)NCC[N+](C)(C)[O-])c3nc12 ?
Marked response: 31

Exam item: Look at this compound and give its reported growth inhibition. COC(=O)C1=C(O)/C(=C\c2ccccc2)NC1=O
Marked response: -40.4

Exam item: Could you tell me which growth inhibition is on file for O=S(=O)(OCC(F)(F)F)c1ccccc1 ?
Marked response: -2.8

Exam item: Any idea what growth inhibition was measured for CCOC(=O)N1C2C=C(C)C(ON2C(=O)c2ccccc2)C2C(C)C(=O)N21 (configuration not stated) ?
Marked response: 18.1

Exam item: Which growth inhibition reading was recorded for the compound O=C(NCc1ccccc1)c1cc(Cl)ccc1O ?
Marked response: -37.4

Exam item: Need growth inhibition of CC/C=N/Nc1cn[nH]c(=O)c1Cl , thanks.
Marked response: 4.85
